target: L1 (Stenotrophomonas maltophilia); experiment: β-lactamase inhibition, fluorogenic FC5 hydrolysis assay; settings: B3 MBL; FC5
Sequence (P52700 34-290): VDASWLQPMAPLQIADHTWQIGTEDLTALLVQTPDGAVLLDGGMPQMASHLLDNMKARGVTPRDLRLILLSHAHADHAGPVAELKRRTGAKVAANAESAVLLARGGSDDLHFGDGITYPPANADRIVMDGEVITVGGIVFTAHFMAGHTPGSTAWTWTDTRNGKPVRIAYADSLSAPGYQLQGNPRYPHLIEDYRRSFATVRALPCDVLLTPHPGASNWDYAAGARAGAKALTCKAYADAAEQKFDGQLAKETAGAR
ENDPOINT_LABEL: IC50

Query: State the recorded IC50 for this entry: NCCN[C@H]1CC[C@H](CC(=O)N[C@H]2Cc3cccc(C(=O)O)c3OB2O)CC1 [VNRX-5133]
Response: > 10 µM
